- Study Target: Le.Ste2 mating receptor (Lodderomyces elongisporus, UniProt A5E1D9)
- Sequence (A5E1D9 entry or part of it): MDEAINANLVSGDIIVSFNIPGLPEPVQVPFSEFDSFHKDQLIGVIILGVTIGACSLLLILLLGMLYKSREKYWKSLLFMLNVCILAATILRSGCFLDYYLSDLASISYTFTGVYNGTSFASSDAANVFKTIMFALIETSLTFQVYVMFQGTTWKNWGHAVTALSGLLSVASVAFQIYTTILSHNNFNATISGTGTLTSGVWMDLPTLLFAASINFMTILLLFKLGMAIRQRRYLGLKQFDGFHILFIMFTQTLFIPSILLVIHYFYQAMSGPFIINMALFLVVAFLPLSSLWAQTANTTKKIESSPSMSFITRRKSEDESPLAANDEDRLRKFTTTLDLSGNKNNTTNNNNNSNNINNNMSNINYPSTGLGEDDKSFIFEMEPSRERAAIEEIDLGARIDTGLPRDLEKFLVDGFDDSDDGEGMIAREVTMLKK
- Test: cell-based
pEC50: −log10 of the molar value. Ends that are not written are not given here.

| Residues | pEC50 |
| --- | --- |
| WMWTRYGRFSPV [Le – Lodderomyces elongisporus] | 7.27 |
